// data source = ChEMBL document CHEMBL1147405

protocol.notes: Concentration of compound causing 50% death of uninfected cells
Type: ADME, cell-based
condition.details: human, MT4 cells (uninfected)
property.label: CC50

| compound | assay.result |
| --- | --- |
| CCCCCCCCCCCCCC(=O)N[C@@H](CCCCNC(=O)CCCCN1CCCN(Cc2ccc(CN3CCCNCCNCCCNCC3)cc2)CCNCCCNCC1)C(=O)N[C@@H](CO[C@@H]1O[C@@H](CO)[C@H](O)[C@H](O)[C@@H]1O)C(=O)O | > 50 µM |
| CCOC(=O)CCCCN1CCCN(Cc2ccc(CN3CCCNCCNCCCNCC3)cc2)CCNCCCNCC1 | > 100 µM |
| CCCCCCCCCCCCCC(=O)N[C@@H](CO[C@@H]1O[C@@H](CO)[C@H](O)[C@H](O)[C@@H]1O)C(=O)O | > 100 µM |
| c1cc(CN2CCCNCCNCCCNCC2)ccc1CN1CCCNCCNCCCNCC1 [PLERIXAFOR] | > 10 µM |
| CCCCCCCCCCCCCC(=O)N[C@@H](CCCCNC(=O)CCCCN1CCCNCCN(Cc2ccc(CN3CCCNCCNCCCNCC3)cc2)CCCNCC1)C(=O)N[C@@H](CO[C@@H]1O[C@@H](CO)[C@H](O)[C@H](O)[C@@H]1O)C(=O)O | > 100 µM |
